# testSummary: folding stability dG unfold from trypsin proteolysis; higher = more stable
This section presents sequences with their documented folding stability dG unfold values.
Write the value in kcal/mol as a bare number.

Illustrative cases are given below, each with its answer.
querySequence	folding stability dG unfold, kcal/mol
SMGSITITLPATPEELRELLREKGISPELAPSWEEVKEALKKAFPKNVTVTINPKSPVSEEAAKAAREGSSA [r9_74_JUSTAS]	0.462
SAGGSAGGGNVYVKIEIYPYDPKNGEPQEQDITIPFETKEDAKDEIEKLLNMPNGMWIKIEVVDSAGGSAGG [r7_0_TrROS]	1.31
SAGGEWRKITVPIKYRFPPGESIDSIANELANLPGLKVEVNVEYEKDPDGRYYMEIPVEIEIPPGAPISAGG [r13_590_TrROS]	0.341

Q: Need folding stability dG unfold, item SAGGSAGGSATIRIPWDKIKDALEEHDMTVTNIEPNPGGNPWVEIEVNGTPEQREKIQEALKSAGGSAGGSA [r18_175_TrROS]
Result: 0.369

Q: Another sequence: SAGPKKKVEIDVHIMIPFKSWEDRELMLYYARKFAPYIARELAKQNGLPPGVDEVKVDVNIMIIPPGQMSAG [r5_436_TrROS]
Result: 2.84

Q: Record: SAGGSAGGSERWVKIWFPPGGTLEEASKMIEEWAQQLGLPITKIDEIEWDPGNGRVEITIRLKSAGGSAGGS [r12_131_TrROS]
Result: 1.93

Q: Query SAGGSAGGSAGNPNTPVIVKITLPGGKEITLEGTVSEAEEIVKKLEEEGHPFVEVEVYNRSAGGSAGGSAGG [r11_946_JUSTAS] next
Result: 0.422

Q: And what about the sequence SAGGSAGGSAGMELTVKVPPDTTPEEVKEKIEKELGLKVKSISVSSFPDGTRTVTITIGPSAGGSAGGSAGG [r17_222_JUSTAS] ?
Result: 2.45

Q: Same lookup for SAGGSAGGKKIKIEIIYDKENNKLYIYVVDENTKKVYRYEFNKNGKLIKVEPVKEVKPGEVIPLSAGGSAGG [r6_148_TrROS_Hall] , please.
Result: 1.96

Q: Now the sequence SAMEIEKIEIEKEEVNGKLYYRIRVKIINKETGKEIELELEFKSLEDALEALKKLPNITRVEITEIEPVSAG [r14_464_TrROS_Hall]
Result: 3.55

====

# testSummary: folding stability dG unfold from trypsin proteolysis; higher = more stable
valueType: folding stability dG unfold (kcal/mol)
Supply the numeric figure in kcal/mol, leaving out any unit text.

querySequence	valueType	experimentalValue
SAGGSAGGSNNPDKKKKPRYVVIQIELKWYPNPNGQWSPELEITATVPAGDLEDKDDAIKDIISAGGSAGGS [r12_933_TrROS]	folding stability dG unfold	2.13
SAGGNIKIEVYRSPDYYMIRIKLDGKPYEIPIDPGNTEEEAAEQALDNLQEKFPDKPIKIKDVEIYPYSAGG [r13_884_TrROS]	folding stability dG unfold	0.473
SAGGSAGGSMVYVVKVEIPETGEEYEFLNPEDKETVEREVRELFPDPEVKAEIEEIEVEPELLSAGGSAGGS [r12_92_TrMRF]	folding stability dG unfold	-0.175
SAGGFKITEVEKDEKKGYPWVSIRIPPKSTLKKLKNMPGPVRIHNPEPGQWIHMPVDDPEEFLDKLLKSAGG [r13_604_TrROS]	folding stability dG unfold	0.274
SAGGSAGGKKPVYEIEITTKDGSKLTIAVKEGEEVEIKITVNGKEISLEDITSIEIRPVELPEESAGGSAGG [r6_222_TrROS_Hall]	folding stability dG unfold	1.99
SAGGSAGGSAGGSAVERIIKEMREKFPPGKEVEIPIEVRTDNGNYVPIEIEFRIPPDQPSAGGSAGGSAGGS [r10_11_TrROS]	folding stability dG unfold	-0.557
SAGGSAGGSGSMKVYTHNVPPGQELTITITRGSSSTTLTFPPNTTVTITVPTSSPATITLTAPSAGGSAGGS [r12_550_JUSTAS]	folding stability dG unfold	1.39
SAGGMITLPIPLEEAEKLLKELTPDGGDVTTTPLGSLDGEVLYEVTITPPETGNTVTVKVLVPKGRGSAGGS [r16_486_JUSTAS]	folding stability dG unfold	-0.627
SAGGSAGGSTIRIRVKTREEAERLAKLIPGARITYDEETKEFYLEIRLPPAPPPSLEELKAALSAGGSAGGS [r20_191_TrROS_Hall]	folding stability dG unfold	3.62
SVIIYMPWDNIPNMLRQLKALAKNGQKPVTIYMPVPEDWRRELREWLDDYGITVEPHPDNDWYKIEIEPKSA [r9_600_TrROS]	folding stability dG unfold	2.54

Q: Form field: reported folding stability dG unfold of SPLTPEQIEELAKEIAQEFPNVKVKIYPNDEPIEIKAPGAEIEIWPPPGEFYIQIEFPGNGKPKQIPIPPSA [r9_1062_TrROS]
Result: 0.00765

Q: // repeat for SAGGMMKLNPKTLETKTTTVPLPDGSTVTLTTKLVELKFPNGEVELVTLTVETFPSEPTLTVLEEKPLSAGG [r19_158_JUSTAS] and report
Result: -0.0226

Q: And for SAGEVELEVPIEALKKLPNLEGATVRVTVKLNENGELEITIEVEKAPEPPLTEEEKKKLLEEEEKKKKSAGG [r19_313_TrROS_Hall] ?
Result: -0.203

Q: What do you get for SAGGSAGGKITPEMEKLKKEIADAIKKAFPNKDLKIEVIKIEKTKDGSVIIDIKIGDKIIRIKASAGGSAGG [r6_494_TrMRF] ?
Result: 2.58

The measurements presented in this section are drawn from the supplement of paper PMC12764529.
